Ref: the supplement of paper PMC9694430

Test system: LOC_OS05G07850-cb002
Procedure details: thermal shift delta Tm vs DMSO control; higher = stronger stabilization (binding);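 further: purified Escherichia coli-expressed rice kinase domain construct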
Assay setup: 12.5 µM; protein concentration 2 µM
Outcome label depends on thermal shift delta Tm relative to 2 °C: at/above gives rule met, below gives rule not met.

Here's what some known entries look like.
Molecule: Cc1nc2c(-c3cnc(N)nc3)nc(N3CCOCC3)nc2n1C(C)C
Discrete label: rule met

Molecule: O=c1cc(N2CCOCC2)oc2c(-c3ccccc3)cccc12
Discrete label: rule not met

Molecule: CONC(=O)c1ccccc1Nc1cc(Nc2cc(C)nn2C(C)C)ncc1Cl
Discrete label: rule met

Molecule: C[C@H](Nc1ncnc2[nH]cnc12)c1cc2ccc(F)cc2nc1-c1ccccn1
Discrete label: rule not met

Molecule: CC(=O)Nc1nc(C)c(-c2ccc(Cl)c(S(=O)(=O)NCCO)c2)s1
Discrete label: rule met

Does the molecule CC[C@@H]1C(=O)N(C)c2cnc(Nc3ccc(C(=O)N[C@H]4CC[C@H](N5CCN(CC6CC6)CC5)CC4)cc3OC)nc2N1C(C)C have recorded thermal shift delta Tm that is 2 °C or more?
rule not met

Also check N[C@@H]1CCCN(c2c(/C=C3\SC(=O)NC3=O)cccc2-c2ccccc2)C1
rule met

Request: N#C/C(=C(/N)Sc1ccc(N)cc1)c1ccccc1C(F)(F)F
rule not met

Now try CN1CCN(c2ccc3nc(-c4c(N)c5c(F)cccc5[nH]c4=O)[nH]c3c2)CC1 [Dovitinib (TKI258) Lactate] .
rule met

====

Overview of recorded thermal shift delta Tm for various molecules
Tested on: LOC_OS03G50810-cb003
Procedure details: thermal shift delta Tm vs DMSO control; higher = stronger stabilization (binding)
Assay setup: 12.5 µM; protein concentration 2 µM
Entry rule: numbers only, all in °C.

Molecule: CC(C)=CC[C@@H](O)C1=CC(=O)c2c(O)ccc(O)c2C1=O [Shikonin]
Target entity: LOC_OS03G50810-cb003
Unit abbreviation: °C
thermal shift delta Tm: 0
//
Molecule: CN1CCN(c2ccc(OC(F)(F)F)c(Nc3ncc4c(n3)-c3c(c(C(N)=O)nn3CCO)CC4)c2)CC1
Target entity: LOC_OS03G50810-cb003
Unit abbreviation: °C
thermal shift delta Tm: 0.54
//
Molecule: Cc1[nH]c(/C=C2\C(=O)Nc3ccc(S(=O)(=O)N(C)c4cccc(Cl)c4)cc32)c(C)c1C(=O)N1CCN(C)CC1
Target entity: LOC_OS03G50810-cb003
Unit abbreviation: °C
thermal shift delta Tm: 0
//
Molecule: Cc1cc(F)c(Nc2ncnc3cc(OCc4ccccc4)ccc23)cc1O
Target entity: LOC_OS03G50810-cb003
Unit abbreviation: °C
thermal shift delta Tm: 0.71
//
Molecule: O=C(c1ccc(F)c(F)c1Nc1ccc(I)cc1F)N1CC(O)([C@@H]2CCCCN2)C1 [Cobimetinib (GDC-0973, RG7420)]
Target entity: LOC_OS03G50810-cb003
Unit abbreviation: °C
thermal shift delta Tm: 0.43
//
Molecule: Cc1c(Cn2c(C)nc3c(C(=O)O)cc(N4CCOCC4)cc32)cccc1C(F)(F)F
Target entity: LOC_OS03G50810-cb003
Unit abbreviation: °C
thermal shift delta Tm: 0.29

Please report the recorded thermal shift delta Tm for CN1CCN(c2ccc3nc(-c4c(N)c5c(F)cccc5[nH]c4=O)[nH]c3c2)CC1 [Dovitinib (TKI-258, CHIR-258)] .
4.84

Follow-up entry: COc1cc2c(Nc3ccc(NC(=O)c4ccccc4)cc3)ncnc2cc1OCCCN1CCOCC1
1.85

And what about the molecule Cc1ccc(NC(=O)c2cccc(N(C)C)c2)cc1NC(=O)c1ccc(O)cc1 ?
0.7

====

Tested on: LOC_OS01G10900-cb004
Procedure details: thermal shift delta Tm vs DMSO control; higher = stronger stabilization (binding)
Assay setup: 12.5 µM; protein concentration 2 µM
Entries annotated with measured thermal shift delta Tm
I'd appreciate it if you included the unit after the number.

Known thermal shift delta Tm results, listed for orientation:
Compound: COc1cc(OC)cc(N(CCNC(C)C)c2ccc3ncc(-c4cnn(C)c4)nc3c2)c1
Target entity: LOC_OS01G10900-cb004
Value type: thermal shift delta Tm
Measured value: 0.16 °C
//
Compound: COC(=O)Nc1ccc(-c2nc(N3CCOCC3)c3cnn(C4CCN(C(=O)OC)CC4)c3n2)cc1
Target entity: LOC_OS01G10900-cb004
Value type: thermal shift delta Tm
Measured value: 1.9 °C
//
Compound: COc1ccc(CCNCc2ccc(OCc3ccc(Cl)nc3)c(OC)c2)cc1OC
Target entity: LOC_OS01G10900-cb004
Value type: thermal shift delta Tm
Measured value: 0.52 °C
//
Compound: CCC(=O)Nc1cccc(Oc2nc(Nc3ccc(N4CCN(C)CC4)cc3OC)ncc2Cl)c1
Target entity: LOC_OS01G10900-cb004
Value type: thermal shift delta Tm
Measured value: 0.23 °C

// lookup thermal shift delta Tm for Cc1ccc(NC(=O)c2ccc(CN3CCN(C)CC3)cc2)cc1Nc1nccc(-c2cccnc2)n1 [Imatinib (STI571)]
1.47 °C

====

Test system: LOC_OS01G02750-cb003
Procedure details: thermal shift delta Tm vs DMSO control; higher = stronger stabilization (binding)
Assay setup: 12.5 µM; protein concentration 2 µM
Value type: thermal shift delta Tm (°C)
Expressed in °C, but write only the number.

Compound: N#CC[C@H](C1CCCC1)n1cc(-c2ncnc3[nH]ccc23)cn1
Value type: thermal shift delta Tm
Measured value: 1.15
--
Compound: Cc1ccc(NC(=O)c2cccc(N(C)C)c2)cc1NC(=O)c1ccc(O)cc1
Value type: thermal shift delta Tm
Measured value: 0.15
--
Compound: C[S+]([O-])c1ccc(-c2nc(-c3ccc(F)cc3)c(-c3ccncc3)[nH]2)cc1 (centres undefined)
Value type: thermal shift delta Tm
Measured value: -0.29
--
Compound: CNC(=O)c1ccc(C)c(-n2c(C)cc(OCc3ccc(F)cc3F)c(Br)c2=O)c1
Value type: thermal shift delta Tm
Measured value: 0.1
--
Compound: Cc1ncc(CCCN(C)C)cc1Nc1ncc2c(n1)-c1ccc(C(F)(F)F)cc1NC(=S)C2
Value type: thermal shift delta Tm
Measured value: 1.24
--
Compound: COc1cc(Nc2ncc3c(n2)-c2ccc(Cl)cc2C(c2c(F)cccc2OC)=NC3)ccc1C(=O)O
Value type: thermal shift delta Tm
Measured value: 0.27

thermal shift delta Tm for O=C(NOC[C@H](O)CO)c1ccc(F)c(F)c1Nc1ccc(I)cc1F ?
0.99

And then COc1ccc(COc2ccc(Cc3cnc(N)nc3N)cc2OC)cc1 , what is it?
1.12

What about C[C@@H]1COCCN1c1cc(C2([S@](C)(=N)=O)CC2)nc(-c2cc[nH]c3nccc2-3)n1 ?
0.13

====

Tested on: LOC_OS02G54510-cb004
Procedure details: thermal shift delta Tm vs DMSO control; higher = stronger stabilization (binding)
Assay setup: 12.5 µM; protein concentration 2 µM
Value type: thermal shift delta Tm (°C)
Give just the numeric value; °C need not be written.

Here's what some known entries look like.
Molecule: OC1CCC(Oc2cccc3cnc(Nc4ccc5nc[nH]c5c4)nc23)CC1 (centres undefined)
Unit abbreviation: °C
thermal shift delta Tm: 2.66
//
Molecule: O=C(O)[C@]1(Cc2cccc(Nc3nccs3)n2)CC[C@@H](Oc2cccc(Cl)c2F)CC1
Unit abbreviation: °C
thermal shift delta Tm: 4.63
//
Molecule: Cc1csc(-c2nnc(Nc3ccc(Oc4ncccc4-c4ccnc(N)n4)cc3)c3ccccc23)c1
Unit abbreviation: °C
thermal shift delta Tm: 0.9

Which measured thermal shift delta Tm value corresponds to O=S(=O)(NCCNC/C=C/c1ccc(Br)cc1)c1cccc2cnccc12 ?
0.32

====

# maps each entry to its thermal shift delta Tm
Test system: LOC_OS03G04050-cb001
Procedure details: thermal shift delta Tm vs DMSO control; higher = stronger stabilization (binding)
Assay setup: 12.5 µM; protein concentration 2 µM
Don't forget the unit after the number, please.

# lookup: thermal shift delta Tm of COc1cc2ncnc(Nc3ccc(F)c(Cl)c3)c2cc1NC(=O)/C=C/CN1CCCCC1
1.08 °C

Also need Cc1ccc(C(=O)Nc2ccc(CN3CCN(C)CC3)c(C(F)(F)F)c2)cc1C#Cc1cnc2[nH]ncc2c1 [GZD824 Dimesylate] , thanks.
0.96 °C

Okay, and CNC(=O)c1ccccc1Nc1cc(Nc2ccc(N3CCOCC3)cc2OC)ncc1C(F)(F)F ?
0.62 °C

Quick one: CC(C)NC(=O)COc1cccc(-c2nc(Nc3ccc4[nH]ncc4c3)c3ccccc3n2)c1
0.76 °C

Try the compound CN(C)C/C=C/C(=O)Nc1cc2c(Nc3ccc(F)c(Cl)c3)ncnc2cc1O[C@H]1CCOC1 [Afatinib (BIBW2992) Dimaleate]
0.35 °C

Now the same for CCS(=O)(=O)c1cccc(-c2cc(C(=O)NC3CCN(C)CC3)c(C)c3[nH]c4ncc(C)cc4c23)c1
-0.02 °C

Would you mind doing CC(C)(O)CC(=O)NCCn1ccc2ncnc(Nc3ccc(Oc4cccc(C(F)(F)F)c4)c(Cl)c3)c21 as well?
0.51 °C

Further, for CCn1c(C(=O)N(C2CC2)C2CC2)cc2c3c(ncn3C)c(Nc3cc(C)n(C)n3)nc21 ?
0.44 °C

Okay, and Cn1cc(/C=C2\C(=O)Nc3cccnc32)c2ccccc21 ?
0.83 °C

# repeat for CCn1c(N)c(C(=O)NC)c(=O)c2ccc(C#CC(C)(O)COC)nc21 (stereo not drawn)
0.43 °C

Would you mind doing O=C(O)[C@]1(Cc2cccc(Nc3nccs3)n2)CC[C@@H](Oc2cccc(Cl)c2F)CC1 as well?
0.19 °C

Next compound up: COc1cc2c(Nc3ccc(NC(=O)c4ccccc4)cc3)ncnc2cc1OCCCN1CCOCC1
0.55 °C

How about this compound: C[S+]([O-])c1ccc(-c2nc(-c3ccc(F)cc3)c(-c3ccncc3)[nH]2)cc1 (stereo not drawn)
1.08 °C

Repeat with CCOc1cn(-c2ccc(F)cc2C)nc1C(=O)Nc1ccc(Oc2ccnc3cc(OC)c(OC)cc23)c(F)c1
0.15 °C

Now the compound COc1ccc(CCNCc2ccc(OCc3ccc(Cl)nc3)c(OC)c2)cc1OC
0 °C

Another compound to check: O=C(Nc1cccc(Nc2ncc(Br)c(NCCc3cnc[nH]3)n2)c1)N1CCCC1
0.77 °C

Another compound to check: Cc1nc2ccc(-n3ncc(C(=O)c4cc5ccccc5[nH]4)c3N)cc2[nH]1
0.05 °C

Now consider CNC(=O)c1ccccc1Nc1nc(Nc2ccc(N3CCOCC3)cc2OC)ncc1Cl and answer again.
0.35 °C
